// U2AF65 UHM (Homo sapiens, UniProt P26368) IC50 records

Short answer for CCCOc1cc2c(cc1OC)N(CCCN1CCN(CCO)CC1)c1cc(Cl)ccc1S2 : IC50 was 7 µM

Short answer for OCCN1CCN(CCCN2c3cc(Cl)ccc3Sc3cc(O)c(O)cc32)CC1 [7,8-dihydroxyperphenazine] : IC50 was 9.2 µM

Short answer for OCCN1CCN(CCCN2c3ccccc3Sc3ccc(Cl)cc32)CC1 : IC50 was 268 µM

Short answer for Clc1ccc2c(c1)N(CCCn1cnc3ccccc31)c1ccccc1S2 : IC50 was 67.6 µM
